# assay-info: Absorbance and fluorescence spectra of FM fluorophores in solvents
# Assay type: physicochemical
# conditions-used: excitation maximum in PBS
assay-endpoint: Ex nm (PBS) (nm)
Answers are plain numbers, in nm.

Batch lookup, Ex nm (PBS) per entry.
1. CCCCN(CCCC)c1ccc(/C=C/C=C/C=C/c2cc[n+](CCC[N+](CC)(CC)CC)cc2)cc1.[Br-].[Br-]
2. CCN(CC)c1ccc(C=CC=CC=Cc2cc[n+](CCC[N+](C)(C)C)cc2)cc1.[Br-].[Br-]
3. CCCCN(CCCC)c1ccc(/C=C/c2cc[n+](CCC[N+](C)(C)C)cc2)cc1.[Br-].[Br-]
4. CCN(CC)c1ccc(/C=C/c2cc[n+](CCC[N+](CC)(CC)CC)cc2)cc1.[Br-].[Br-]
5. CCCCN(CCCC)c1ccc(/C=C/c2cc[n+](CCC[N+](CC)(CC)CC)cc2)cc1.[Br-].[Br-]
6. CCN(CC)c1ccc(/C=C/C=C/C=C/c2cc[n+](CCC[N+](CC)(CC)CC)cc2)cc1.[Br-].[Br-]

[519, 490, 497, 490, 493, 507]
